# Test system: PHKG1 or PHKG2 (rabbit)
# testDescription: radiometric filter-binding kinase assay
# conditionContext: compound 1.0 µM; ATP 100 µM; accession and sequence are those of the human protein
measurementLabel: residual activity (%)

{"columns": ["molecule", "assaySystem", "units", "testValue"],
 "data": [
  ["COC[C@H]1OC(=O)c2coc3c2[C@@]1(C)C1=C(C3=O)[C@@H]2CCC(=O)[C@@]2(C)C[C@H]1OC(C)=O", "PHKG1 or PHKG2 (rabbit)", "%", 100],
  ["CO[C@H]1CC2CC[C@@H](C)[C@@](O)(O2)C(=O)C(=O)N2CCCC[C@H]2C(=O)OC([C@H](C)C[C@@H]2CC[C@@H](O)[C@H](OC)C2)CC(=O)[C@H](C)/C=C(\\C)[C@@H](O)[C@@H](OC)C(=O)[C@H](C)C[C@H](C)/C=C/C=C/C=C/1C (some centres undefined)", "PHKG1 or PHKG2 (rabbit)", "%", 103],
  ["CN[C@@H]1C[C@@H]2O[C@@](C)([C@@H]1OC)n1c3ccccc3c3c4c(c5c6ccccc6n2c5c31)C(=O)N[C@@H]4O", "PHKG1 or PHKG2 (rabbit)", "%", 0],
  ["CN1C(=O)C(c2c[nH]c3ccccc23)=C(c2c[nH]c3ccccc23)C1=O", "PHKG1 or PHKG2 (rabbit)", "%", 100]
]}

All figures here come from the kinase profiling compilation of Christmann-Franck et al. (2016).
